- assayTarget: α7 homomeric neuronal nAChR (Rattus norvegicus, UniProt Q05941)
- Construct: expressed in transfected cells; host or cells: Xenopus laevis oocytes injected with cRNA; clone from Dr. Jim Boulter (UCLA)
- Sequence (Q05941 23-502): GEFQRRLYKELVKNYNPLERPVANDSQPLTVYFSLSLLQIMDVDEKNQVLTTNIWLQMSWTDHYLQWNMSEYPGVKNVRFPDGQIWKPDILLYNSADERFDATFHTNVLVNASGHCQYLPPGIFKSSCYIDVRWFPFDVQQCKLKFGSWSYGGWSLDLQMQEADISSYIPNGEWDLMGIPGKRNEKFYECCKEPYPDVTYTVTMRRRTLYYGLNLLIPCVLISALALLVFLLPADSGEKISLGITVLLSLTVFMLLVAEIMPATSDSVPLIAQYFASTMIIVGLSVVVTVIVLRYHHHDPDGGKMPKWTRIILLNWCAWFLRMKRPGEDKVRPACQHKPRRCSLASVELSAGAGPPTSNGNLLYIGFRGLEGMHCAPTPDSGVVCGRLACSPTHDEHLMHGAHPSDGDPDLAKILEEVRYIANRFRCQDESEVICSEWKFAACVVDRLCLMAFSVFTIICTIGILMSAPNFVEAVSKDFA
- testProtocol: Voltage clamp of Xenopus oocytes expressing α7 nAChR
- Assay type: cell-based
- measurementContext: decrease in peak current amplitude, 300 μM ACh co-applied with TMPH; read-out: IC50 (peak)
measurementKind: IC50 (µM)

In [3]: df
Out[3]:
                                  compound  unitlabel  assayvalue
0  CCCCCCC(=O)OC1CC(C)(C)NC(C)(C)C1 [TMPH]         µM           1

* * *

- assayTarget: Rat α3β4β3 (Rattus norvegicus, UniProt P04757+P12391+P12392)
- Sequence (P04757 26-499): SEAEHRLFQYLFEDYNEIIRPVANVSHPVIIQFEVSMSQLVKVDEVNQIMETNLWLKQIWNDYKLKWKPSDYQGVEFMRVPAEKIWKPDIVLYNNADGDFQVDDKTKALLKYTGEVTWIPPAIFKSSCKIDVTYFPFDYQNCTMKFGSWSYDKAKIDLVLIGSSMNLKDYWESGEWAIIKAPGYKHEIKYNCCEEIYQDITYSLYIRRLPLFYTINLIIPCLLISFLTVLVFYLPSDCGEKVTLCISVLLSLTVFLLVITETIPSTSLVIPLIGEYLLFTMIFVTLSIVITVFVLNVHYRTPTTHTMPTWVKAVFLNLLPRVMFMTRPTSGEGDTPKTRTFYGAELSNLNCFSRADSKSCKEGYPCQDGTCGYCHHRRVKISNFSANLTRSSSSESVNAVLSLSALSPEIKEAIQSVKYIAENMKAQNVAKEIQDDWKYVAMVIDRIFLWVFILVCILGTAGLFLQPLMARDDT
- Sequence (P12392 21-495): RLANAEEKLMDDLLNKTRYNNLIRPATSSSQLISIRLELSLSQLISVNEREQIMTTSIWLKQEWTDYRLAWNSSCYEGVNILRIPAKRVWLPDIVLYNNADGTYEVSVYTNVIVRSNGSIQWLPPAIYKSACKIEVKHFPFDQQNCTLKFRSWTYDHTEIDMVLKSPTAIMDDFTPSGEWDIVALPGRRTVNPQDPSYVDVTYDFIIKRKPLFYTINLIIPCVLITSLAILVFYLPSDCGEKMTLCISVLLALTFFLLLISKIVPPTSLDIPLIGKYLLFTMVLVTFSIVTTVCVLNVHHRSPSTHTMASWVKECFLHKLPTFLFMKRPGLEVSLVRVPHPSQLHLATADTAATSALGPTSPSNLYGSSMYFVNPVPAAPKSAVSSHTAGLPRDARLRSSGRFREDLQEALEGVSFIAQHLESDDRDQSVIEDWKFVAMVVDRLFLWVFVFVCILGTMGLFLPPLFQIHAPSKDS
- Sequence (P12391 31-464): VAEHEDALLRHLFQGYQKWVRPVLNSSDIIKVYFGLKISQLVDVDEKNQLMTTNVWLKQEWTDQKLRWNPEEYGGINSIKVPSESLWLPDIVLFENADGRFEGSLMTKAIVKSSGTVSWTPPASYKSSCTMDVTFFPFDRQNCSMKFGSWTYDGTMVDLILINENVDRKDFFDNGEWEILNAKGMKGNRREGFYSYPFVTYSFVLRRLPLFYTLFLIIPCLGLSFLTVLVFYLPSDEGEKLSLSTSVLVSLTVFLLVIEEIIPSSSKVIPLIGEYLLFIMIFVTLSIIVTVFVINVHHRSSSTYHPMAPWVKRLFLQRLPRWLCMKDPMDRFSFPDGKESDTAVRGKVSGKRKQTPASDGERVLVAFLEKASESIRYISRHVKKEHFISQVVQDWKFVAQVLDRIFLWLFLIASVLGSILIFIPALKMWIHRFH
- testProtocol: Voltage clamp of Xenopus oocytes expressing α3β4β3 nAChR
- Type: cell-based
- Parameters: expressed in transfected cells; host or cells: Xenopus laevis oocytes injected with subunit cRNAs; clones from Dr. Jim Boulter (UCLA)
- measurementContext: decrease in peak current amplitude, 100 μM ACh co-applied with TMPH; read-out: IC50 (peak)
measurementKind: IC50 (nM)

>>> print(df.to_string())
                         testsmiles  assayvalue
0  CCCCCCC(=O)OC1CC(C)(C)NC(C)(C)C1        1900

* * *

- assayTarget: Rat α3β4β3 (Rattus norvegicus, UniProt P04757+P12391+P12392)
- testProtocol: Voltage clamp of Xenopus oocytes expressing α3β4β3 nAChR
- Type: cell-based
- Design: Rat neuronal nAChR clones and mouse muscle nAChR cDNA clones were used; The wild-type clones were obtained from Dr. Jim Boulter (UCLA)
- measurementContext: inhibition still present after 5-minute wash; read-out: IC50 (recovery), 2 site model, site with approximately 15% of the fit
pIC50: −log10 of the molar value.
measurementKind: pIC50

>>> df
                                  molecule  assayvalue
0  CCCCCCC(=O)OC1CC(C)(C)NC(C)(C)C1 [TMPH]        6.00

* * *

- assayTarget: Human α3β2 (Homo sapiens, UniProt P17787+P32297)
- Construct: expressed in transfected cells; host or cells: Xenopus laevis oocytes injected with subunit cRNAs
- Sequence (P32297 32-505): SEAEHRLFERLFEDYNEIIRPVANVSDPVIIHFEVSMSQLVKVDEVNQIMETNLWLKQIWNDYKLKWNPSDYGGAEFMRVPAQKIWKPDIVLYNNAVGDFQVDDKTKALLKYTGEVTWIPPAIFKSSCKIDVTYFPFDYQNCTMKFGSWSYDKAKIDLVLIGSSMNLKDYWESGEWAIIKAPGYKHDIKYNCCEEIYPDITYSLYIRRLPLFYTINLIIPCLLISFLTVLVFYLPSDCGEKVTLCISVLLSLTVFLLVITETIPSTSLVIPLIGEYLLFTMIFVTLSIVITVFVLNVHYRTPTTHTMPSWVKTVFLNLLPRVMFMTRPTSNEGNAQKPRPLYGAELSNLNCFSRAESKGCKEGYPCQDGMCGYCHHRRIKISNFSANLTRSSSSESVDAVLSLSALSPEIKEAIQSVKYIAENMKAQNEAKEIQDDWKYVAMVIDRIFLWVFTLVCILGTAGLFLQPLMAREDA
- Sequence (P17787 26-502): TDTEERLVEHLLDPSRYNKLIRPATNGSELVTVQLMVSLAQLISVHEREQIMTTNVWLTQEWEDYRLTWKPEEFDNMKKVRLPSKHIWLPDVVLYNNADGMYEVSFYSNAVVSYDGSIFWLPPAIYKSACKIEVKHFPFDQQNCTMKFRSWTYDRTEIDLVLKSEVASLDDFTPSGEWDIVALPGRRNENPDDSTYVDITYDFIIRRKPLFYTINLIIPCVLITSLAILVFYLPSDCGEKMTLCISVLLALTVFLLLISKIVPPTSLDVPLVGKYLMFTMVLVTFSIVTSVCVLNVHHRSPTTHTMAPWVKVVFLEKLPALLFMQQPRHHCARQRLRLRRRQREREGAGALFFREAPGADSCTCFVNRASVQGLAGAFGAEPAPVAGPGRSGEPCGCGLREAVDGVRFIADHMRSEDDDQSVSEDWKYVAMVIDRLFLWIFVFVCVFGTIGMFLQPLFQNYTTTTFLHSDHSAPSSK
- testProtocol: Voltage clamp of Xenopus oocytes expressing human α3β2 nAChR
- Format: cell-based
- measurementContext: decrease in peak current amplitude, 30 μM ACh co-applied with TMPH; read-out: IC50 (peak)
measurementKind: IC50 (µM)

                         testsmiles  measurementkind  assayvalue
0  CCCCCCC(=O)OC1CC(C)(C)NC(C)(C)C1             IC50         3.7

* * *

- assayTarget: Rat α3β4β3 (Rattus norvegicus, UniProt P04757+P12391+P12392)
- testProtocol: Voltage clamp of Xenopus oocytes expressing α3β4β3 nAChR
- Assay type: cell-based
- Parameters: expressed in transfected cells; host or cells: Xenopus laevis oocytes injected with subunit cRNAs; clones from Dr. Jim Boulter (UCLA)
- measurementContext: inhibition still present after 5-minute wash; read-out: IC50 (recovery), 2 site model, site with 85% of the fit
pIC50: −log10 of the molar value.
measurementKind: pIC50

>>> df
                                  compound  measurementkind  assayvalue
0  CCCCCCC(=O)OC1CC(C)(C)NC(C)(C)C1 [TMPH]            pIC50        4.52

* * *

- assayTarget: mouse muscle-type (α1β1εδ) nAChR (Mus musculus, UniProt P02716+P04756+P09690+P20782)
- Construct: expressed in transfected cells; host or cells: Xenopus laevis oocytes injected with subunit cRNAs; clones from Dr. Jim Boulter (UCLA)
- Sequence (P04756 21-457): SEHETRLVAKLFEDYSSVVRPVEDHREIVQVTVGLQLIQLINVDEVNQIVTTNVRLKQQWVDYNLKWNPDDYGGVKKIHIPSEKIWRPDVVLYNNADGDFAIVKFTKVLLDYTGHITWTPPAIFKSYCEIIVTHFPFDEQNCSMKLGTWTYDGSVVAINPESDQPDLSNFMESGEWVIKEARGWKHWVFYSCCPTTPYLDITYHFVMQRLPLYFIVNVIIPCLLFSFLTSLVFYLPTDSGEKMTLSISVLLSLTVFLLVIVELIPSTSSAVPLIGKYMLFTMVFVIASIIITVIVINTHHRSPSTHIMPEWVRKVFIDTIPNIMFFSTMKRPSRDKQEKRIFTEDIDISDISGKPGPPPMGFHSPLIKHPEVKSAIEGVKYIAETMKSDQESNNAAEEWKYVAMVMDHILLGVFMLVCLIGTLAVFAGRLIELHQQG
- Sequence (P09690 24-501): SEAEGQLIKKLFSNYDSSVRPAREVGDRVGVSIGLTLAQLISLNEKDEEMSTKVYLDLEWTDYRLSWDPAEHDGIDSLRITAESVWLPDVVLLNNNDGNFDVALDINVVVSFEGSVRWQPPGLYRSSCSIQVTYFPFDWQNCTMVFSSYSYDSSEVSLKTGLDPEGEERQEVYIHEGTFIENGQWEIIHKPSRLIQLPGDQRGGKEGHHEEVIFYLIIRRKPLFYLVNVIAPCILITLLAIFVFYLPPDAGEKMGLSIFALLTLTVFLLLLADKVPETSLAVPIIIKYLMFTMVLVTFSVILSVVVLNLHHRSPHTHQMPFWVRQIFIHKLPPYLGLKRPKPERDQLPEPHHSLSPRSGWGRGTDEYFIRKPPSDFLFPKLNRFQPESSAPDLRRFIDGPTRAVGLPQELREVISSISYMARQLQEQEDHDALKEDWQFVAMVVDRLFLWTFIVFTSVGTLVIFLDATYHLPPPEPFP
- Sequence (P20782 21-493): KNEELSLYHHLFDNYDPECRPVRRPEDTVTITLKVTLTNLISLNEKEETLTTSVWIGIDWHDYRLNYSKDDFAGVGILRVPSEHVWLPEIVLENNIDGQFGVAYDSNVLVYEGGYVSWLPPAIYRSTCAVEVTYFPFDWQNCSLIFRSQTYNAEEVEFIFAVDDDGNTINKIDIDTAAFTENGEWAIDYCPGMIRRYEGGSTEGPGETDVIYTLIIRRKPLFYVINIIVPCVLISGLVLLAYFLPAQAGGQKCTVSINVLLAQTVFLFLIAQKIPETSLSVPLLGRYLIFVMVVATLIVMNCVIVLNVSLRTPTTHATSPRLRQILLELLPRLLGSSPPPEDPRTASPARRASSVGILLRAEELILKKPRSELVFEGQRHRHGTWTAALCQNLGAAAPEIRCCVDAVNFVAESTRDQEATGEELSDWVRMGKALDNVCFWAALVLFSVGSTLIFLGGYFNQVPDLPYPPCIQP
- Sequence (P02716 25-520): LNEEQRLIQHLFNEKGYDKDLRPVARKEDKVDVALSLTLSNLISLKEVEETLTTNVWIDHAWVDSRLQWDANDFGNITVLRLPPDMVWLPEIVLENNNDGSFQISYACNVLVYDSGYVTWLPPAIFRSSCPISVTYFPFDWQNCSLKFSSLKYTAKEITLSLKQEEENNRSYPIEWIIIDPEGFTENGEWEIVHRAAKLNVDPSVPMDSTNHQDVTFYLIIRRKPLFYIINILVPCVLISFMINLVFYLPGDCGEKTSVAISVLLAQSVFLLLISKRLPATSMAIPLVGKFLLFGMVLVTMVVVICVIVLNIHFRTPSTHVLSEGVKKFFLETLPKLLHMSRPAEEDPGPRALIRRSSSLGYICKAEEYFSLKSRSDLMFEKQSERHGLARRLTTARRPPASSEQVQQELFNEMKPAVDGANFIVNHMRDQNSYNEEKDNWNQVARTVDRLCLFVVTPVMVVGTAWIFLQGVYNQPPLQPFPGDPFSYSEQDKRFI
- testProtocol: Voltage clamp of Xenopus oocytes expressing muscle-type nAChR
- Type: cell-based
- measurementContext: decrease in net charge, ACh co-applied with TMPH; read-out: IC50 (area)
measurementKind: IC50

                         testsmiles                               assaytarget  assayvalue
0  CCCCCCC(=O)OC1CC(C)(C)NC(C)(C)C1  mouse muscle-type (α1β1εδ) nAChR (Mus musculus, UniProt P02716+P04756+P09690+P20782)      390 nM
